The entries below are paired with their reported viability, T/C.
System: 186277-243-T-J2-PDC multi-cell spheroid viability;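 also: spheroids exposed to compounds for seven days before viability reading; 100% = DMSO vehicle control viability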
Experiment: Anticancer human tumor 186277-243-T-J2-PDC patient-derived colon adenocarcinoma cell line growth inhibition [PI3K]
Conditions: second compound 0.01 µM; first compound 0.1 µM; hits give low values
Excerpt: Combinatorial screen of targeted agents with the PI3K inhibitors inavolisib, alpelisib, duvelisib, and copanlisib in multi-cell type tumor spheroids A high-throughput screen of multi-cell type tumor spheroids was designed to identify active combinations of targeted small molecules and PI3K pathway inhibitors. […] Compounds. […] If the clinical Cmax for an agent had not been determined, the highest concentration tested was 10 microM. […]
Quick note: give the figure in %, leave out the unit.

Previously resolved entries follow.
compound="CC(Cn1ccc(-c2ccc(C#N)c(Cl)c2)n1)NC(=O)c1cc(C(C)O)[nH]n1 (stereo not drawn) + COc1c(OCCCN2CCOCC2)ccc2c3n(c(=NC(=O)c4cnc(N)nc4)nc12)CCN3" system_name="186277-243-T-J2-PDC multi-cell spheroid viability" value_observed=100
compound="Cn1nccc1Nc1nccc(-c2ccn(C(CO)c3ccc(Cl)c(F)c3)c(=O)c2)n1 (stereo not drawn) + CC(Nc1ccc2c(c1)OCCn1cc(N3C(=O)OCC3C(F)F)nc1-2)C(N)=O" system_name="186277-243-T-J2-PDC multi-cell spheroid viability" value_observed=121

Moving on to another compound below.
Read the entry C#Cc1c(F)ccc2cc(O)cc(-c3ncc4c(N5CC6CCC(C5)N6)nc(OCC56CCCN5CC(F)C6)nc4c3F)c12 (stereo not drawn) + COc1c(OCCCN2CCOCC2)ccc2c3n(c(=NC(=O)c4cnc(N)nc4)nc12)CCN3 and write its reported viability, T/C.
20.9
